- test-target: Adrenergic receptor alpha-1 (Rattus norvegicus, UniProt P15823+P23944+P43140)
- protocol-text: Binding affinity towards alpha-1 adrenergic receptor in rat cortical membranes
- Type: cell membranes
assay-metric: Ki (nM)
Give a bare numeral; the unit nM is implied.

Example compounds with recorded Ki:
> print(dat)
                                   compound  recorded.value
1  COc1cccc(C2CCC(N3CCN(c4ccccn4)CC3)CC2)c1 (cis isomer)             783
2  COc1cccc(C2CCC(N3CCN(c4ccccc4)CC3)CC2)c1 (stereo in doubt; cis)            2250
3  COc1cccc2c1CCCC2CCCNCCOc1ccccn1 (stereo unspecified)              83
4  COc1cccc(C2CCC(N3CCN(c4ccccc4OC)CC3)CC2)c1 (stereo in doubt; cis)            1050

Consider the compound shown here: COc1ccc2c(c1)CCC(CN1CCN(c3ccccn3)CC1)C2 (stereo unspecified) What is its recorded Ki? 585

Consider the compound shown here: COc1cccc2c(CCCN3CCN(c4ccccn4)CC3)cccc12 What is its recorded Ki? 833
